- Test system: Streptococcus sp. 'group A'
- test method notes: Streptococcus pyogenes SK(-)GAS viability under kanamycin – luminescence, BacTiterGlo, confirmation, counter-screen for streptokinase expression inhibitor project, dose response (AID 1900)
- Assay type: functional, organism-based
Calls of active or inactive are those of the source.
outcome measure: EC50

Solved entries:
Cc1cc2n(n1)C(c1c[nH]c3ccccc13)Nc1ccccc1-2 (stereo unspecified) : 8.99 µM (active)
CC(C)c1ccc(N2C(=O)/C(=C/N(C)C)SC2=S)cc1 : 3.85 µM (active)
Fc1ccccc1CNc1ccc(Cl)c(Cl)c1 : 11.4 µM (active)
COc1ccc(C(=O)O)cc1NC(=S)NC(=O)c1ccc(-c2ccc(Cl)cc2)o1 : 5.27 µM (active)
O=C(Oc1ccc(/N=C2\C(=O)c3ccccc3C(O)=C2Cl)cc1)c1ccc([N+](=O)[O-])cc1 : 20.7 µM (active)

Lab note: next compound to report on.
Query: Tell me reported EC50 for "c1ccc(CCNc2nc(-c3ccccn3)nc3ccccc23)cc1" , tested with Streptococcus sp. 'group A'.
Result: 0.916 µM (active)

###

Measured AC50, listed per entry.
- system: UniProt P9WQ81
- Sequence (P9WQ81 whole entry): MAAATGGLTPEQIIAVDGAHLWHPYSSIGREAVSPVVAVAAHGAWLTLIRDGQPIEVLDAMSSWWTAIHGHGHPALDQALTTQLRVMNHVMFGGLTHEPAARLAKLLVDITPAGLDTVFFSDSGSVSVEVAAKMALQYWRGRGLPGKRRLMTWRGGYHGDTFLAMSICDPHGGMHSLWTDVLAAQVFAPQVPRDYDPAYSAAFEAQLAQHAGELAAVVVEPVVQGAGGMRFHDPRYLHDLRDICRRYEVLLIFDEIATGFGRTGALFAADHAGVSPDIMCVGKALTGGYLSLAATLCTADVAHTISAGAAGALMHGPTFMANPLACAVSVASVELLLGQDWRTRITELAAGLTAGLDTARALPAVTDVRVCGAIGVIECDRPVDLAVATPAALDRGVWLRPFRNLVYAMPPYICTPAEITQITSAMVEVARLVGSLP
- test method notes: Mycobacterium tuberculosis BioA enzyme inhibitor Measured in Biochemical System Using Plate Reader - 2163-02_Inhibitor_Dose_CherryPick_Activity.
- Assay type: functional, Mycobacterium tuberculosis UT205
Activity calls are given as the source filed them.

Cn1ncc2cc3c(Nc4ccc(Cl)cc4)cccc3nc21 : 5.67 µM (active)

Query: AC50; subject: O=C(Nc1ncc2c(n1)CC(c1ccco1)CC2=O)c1ccccc1 (centres undefined)
Result: 0.657 µM (active)

Query: AC50; subject: CCC(CO)Oc1cc(NC(=O)c2cccc(F)c2)c2ncn(C(C)C)c2c1 (centres undefined)
Result: 5 µM (active)

Query: AC50; subject: "O=C(N[C@H]1CC[C@@H](CCn2cc(-c3cccnc3)nn2)O[C@@H]1CO)c1ccccc1F"
Result: 11.7 µM (active)

###

- System: Vero
- test method notes: viability of Vero cells under compound – cytotoxicity control for flavivirus capping enzyme inhibitors (AID 588742)
- Format: functional
- experimental setup: Chlorocebus sabaeus
Activity calls are given as the source filed them.
Measured CC50, listed per entry.

Solved entries:
O=C(/C(=N/N=C/c1ccc(O)c(O)c1O)c1ccccc1)c1ccccc1 : 9.15 µM (active)
Oc1c(Cl)cc(Cl)c2c1NCCC2 : 34.5 µM (active)
NC(=O)/C(=N\OC(=O)c1ccco1)c1nc(-c2ccc(Br)cc2)cs1 : > 40 µM (active)

Query: CC50; subject: CC(C(=O)Nc1ccc(C(=O)O)c(O)c1)N1C(=O)/C(=C\c2ccco2)SC1=S (centres undefined)
Result: > 40 µM (active)

###

- system: Probable nicotinate-nucleotide adenylyltransferase (Staphylococcus aureus (strain N315), UniProt P65502);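 note: confirmatory dose-response retesting of NadD inhibitor hits first found in an ultra-high-throughput screen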
- Sequence (P65502 whole entry): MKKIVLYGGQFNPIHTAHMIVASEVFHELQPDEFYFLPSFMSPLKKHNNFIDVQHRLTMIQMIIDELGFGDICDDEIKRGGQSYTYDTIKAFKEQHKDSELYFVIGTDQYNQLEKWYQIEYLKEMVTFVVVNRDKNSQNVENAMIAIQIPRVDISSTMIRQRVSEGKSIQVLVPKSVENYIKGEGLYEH
- Type: functional, Staphylococcus aureus subsp. aureus N315
- experimental setup: read-out: IC50_Mean
Activity calls are given as the source filed them.
outcome measure: IC50

Solved entries:
CC(C)n1c(=S)[nH]c2scc(-c3cccs3)c2c1=O : 34 µM (active)
CCN(CC)C(=O)CSc1ncnc2c(-c3cccs3)nsc12 : 37.6 µM (active)
NC(=O)/C(=N\OC(=O)c1ccco1)c1nc(-c2ccc(Br)cc2)cs1 : 29.2 µM (active)

Lab note: next molecule to report on.
Query: IC50; subject: "O=C(COC(=O)c1c2c(nc3ccccc13)/C(=C\c1ccco1)CC2)NC1CCCC1"
Result: 16.9 µM (active)

###

Measured AC50, listed per entry.
- system: Microphthalmia-associated transcription factor (Homo sapiens, UniProt O75030)
- Sequence (O75030 whole entry): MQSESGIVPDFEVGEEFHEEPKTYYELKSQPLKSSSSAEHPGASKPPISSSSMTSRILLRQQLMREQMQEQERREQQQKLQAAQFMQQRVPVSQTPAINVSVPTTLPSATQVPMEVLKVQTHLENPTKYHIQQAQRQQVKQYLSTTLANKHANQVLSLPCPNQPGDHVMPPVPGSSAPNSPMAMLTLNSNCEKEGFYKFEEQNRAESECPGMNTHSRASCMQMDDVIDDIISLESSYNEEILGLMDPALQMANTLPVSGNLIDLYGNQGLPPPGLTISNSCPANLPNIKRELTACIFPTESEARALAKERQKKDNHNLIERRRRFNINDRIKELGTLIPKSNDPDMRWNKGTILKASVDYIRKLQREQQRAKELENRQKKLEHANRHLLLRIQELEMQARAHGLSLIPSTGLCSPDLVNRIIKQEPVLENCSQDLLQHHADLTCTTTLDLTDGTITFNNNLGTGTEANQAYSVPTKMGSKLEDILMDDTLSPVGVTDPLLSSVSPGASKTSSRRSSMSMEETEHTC
- test method notes: reducers of TRPM1 reporter luminescence, concentration series – cell-based, SK-MEL-5, cherry-picked, set 3, MITF inhibitor project, dose response (AID 493073);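 note: SK-MEL-5 melanoma cells with luciferase driven by the MITF target TRPM1 promoter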
- Assay type: functional
Calls of active or inactive are those of the source.

Solved entries:
CCOC(=O)CCc1ccc(NC(=O)/C=C/c2ccc([N+](=O)[O-])o2)cc1 : 6.83 µM (active)
O=[N+]([O-])c1ccc(/C=N/n2c(CO)nc3ccccc32)s1 : 1.97 µM (active)
CCSCCc1nnc(NC(=O)Nc2cccc(C(F)(F)F)c2)s1 : 8.99 µM (active)

Query: AC50; subject: "O=C(/C=C/c1ccc(Cl)c([N+](=O)[O-])c1)c1ccc(O)cc1"
Result: 17.4 µM (active)

Query: AC50; subject: "CN(C(=O)/C=C/c1ccc([N+](=O)[O-])s1)c1ccccc1"
Result: 9.11 µM (active)

###

- system: Voltage-gated N-type calcium channel alpha-1B subunit/Amyloid beta A4 precursor protein-binding family A member 1 (Homo sapiens, UniProt Q00975+Q02410)
- Type: protein assay
The source made the active and inactive calls.
Answer with one of the outcomes given here: active, inactive

C=Cc1ccc(C(=O)N2CCCC(CCC(=O)N3CCN(c4ccccn4)CC3)C2)cc1 (stereo not given) : inactive
NS(=O)(=O)c1ccc(CCNC(=O)/C=C/c2ccc([N+](=O)[O-])cc2)cc1 : inactive
O=C(O)CCCNC(=O)/C=C/c1ccco1 : active
ClC(Cl)(c1nnnn1-c1ccccc1)c1nnnn1-c1ccccc1 : active

--- query ---
Query: State the result this test recorded for "CCOc1cc(/C=C(/C#N)C(=O)Nc2ccc(OC)cc2)ccc1OCc1ccc(C(=O)O)cc1" .
Result: inactive

###

Measured EC50, listed per entry.
- Tested on: BJ
- test method notes: cells
- Assay type: functional, cell-based
- experimental setup: Homo sapiens
Calls of active or inactive are those of the source.

Cc1cccc(N2CCN(C(=O)c3c(-c4ccccc4)noc3C)CC2)c1C : 89.6 µM (active)

Lab note: next molecule to report on.
Query: EC50; subject: "Cc1c(C(=O)c2ccc(Cl)c([N+](=O)[O-])c2)c2ccccn2c1CCC#N"
Result: > 150 µM (not active)

###

- system: Cytochrome P450 2D6 (Homo sapiens);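 note: CYP2D6 member of a cytochrome P450 panel assay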
- Sequence (P10635 whole entry): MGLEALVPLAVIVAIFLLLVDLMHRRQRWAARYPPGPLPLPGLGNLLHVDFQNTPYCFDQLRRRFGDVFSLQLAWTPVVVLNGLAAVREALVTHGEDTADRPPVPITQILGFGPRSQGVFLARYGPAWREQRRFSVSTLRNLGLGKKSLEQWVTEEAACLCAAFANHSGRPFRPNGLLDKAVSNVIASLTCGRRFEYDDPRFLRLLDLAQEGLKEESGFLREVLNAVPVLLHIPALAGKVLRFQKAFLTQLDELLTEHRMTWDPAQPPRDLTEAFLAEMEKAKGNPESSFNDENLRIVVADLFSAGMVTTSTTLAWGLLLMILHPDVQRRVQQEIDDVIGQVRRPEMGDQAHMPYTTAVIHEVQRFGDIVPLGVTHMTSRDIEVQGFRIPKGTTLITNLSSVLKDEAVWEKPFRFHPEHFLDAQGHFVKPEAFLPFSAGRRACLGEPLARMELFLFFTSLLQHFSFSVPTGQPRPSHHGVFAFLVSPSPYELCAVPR
Measured AC50, listed per entry.

Solved entries:
Cc1ccccc1-n1nc2c(c1NC(=O)c1ccc(S(=O)(=O)N(C)C)cc1)CSC2 : 28.2 µM (inconclusive)
COc1ccccc1CNC(=O)Cn1nnc(-c2ccncc2)n1 : 2.24 µM (inconclusive)
COc1cc2c(CCNC(C)=O)c[nH]c2cc1O : 39.8 µM (inconclusive)
CCOC(=O)N1CCN(C(=O)c2ccc3nc(N4CCC(C)CC4)sc3c2)CC1 : 28.2 µM (inconclusive)
COC(=O)[C@@]1(Cc2ccccc2)[C@H]2c3cc(C(=O)N(C)C)n(Cc4ccsc4Br)c3C[C@H]2CN1C(=O)c1ccccc1 : 31.6 µM (inconclusive)

Query: Tell me reported AC50 for "Cc1ccc(-[n+]2cc(=O)o[nH]2)cc1" , tested with Cytochrome P450 2D6 (Homo sapiens).
Result: 1.58 µM (inconclusive)

Query: Tell me reported AC50 for COc1ccc(/C=N\NC(=O)C2C(=O)NCC2c2ccccc2)cc1O (centres undefined) , tested with Cytochrome P450 2D6 (Homo sapiens).
Result: 7.94 µM (inconclusive)

###

- system: Fatty acid synthase (Homo sapiens, UniProt P49327)
- Sequence (P49327 whole entry): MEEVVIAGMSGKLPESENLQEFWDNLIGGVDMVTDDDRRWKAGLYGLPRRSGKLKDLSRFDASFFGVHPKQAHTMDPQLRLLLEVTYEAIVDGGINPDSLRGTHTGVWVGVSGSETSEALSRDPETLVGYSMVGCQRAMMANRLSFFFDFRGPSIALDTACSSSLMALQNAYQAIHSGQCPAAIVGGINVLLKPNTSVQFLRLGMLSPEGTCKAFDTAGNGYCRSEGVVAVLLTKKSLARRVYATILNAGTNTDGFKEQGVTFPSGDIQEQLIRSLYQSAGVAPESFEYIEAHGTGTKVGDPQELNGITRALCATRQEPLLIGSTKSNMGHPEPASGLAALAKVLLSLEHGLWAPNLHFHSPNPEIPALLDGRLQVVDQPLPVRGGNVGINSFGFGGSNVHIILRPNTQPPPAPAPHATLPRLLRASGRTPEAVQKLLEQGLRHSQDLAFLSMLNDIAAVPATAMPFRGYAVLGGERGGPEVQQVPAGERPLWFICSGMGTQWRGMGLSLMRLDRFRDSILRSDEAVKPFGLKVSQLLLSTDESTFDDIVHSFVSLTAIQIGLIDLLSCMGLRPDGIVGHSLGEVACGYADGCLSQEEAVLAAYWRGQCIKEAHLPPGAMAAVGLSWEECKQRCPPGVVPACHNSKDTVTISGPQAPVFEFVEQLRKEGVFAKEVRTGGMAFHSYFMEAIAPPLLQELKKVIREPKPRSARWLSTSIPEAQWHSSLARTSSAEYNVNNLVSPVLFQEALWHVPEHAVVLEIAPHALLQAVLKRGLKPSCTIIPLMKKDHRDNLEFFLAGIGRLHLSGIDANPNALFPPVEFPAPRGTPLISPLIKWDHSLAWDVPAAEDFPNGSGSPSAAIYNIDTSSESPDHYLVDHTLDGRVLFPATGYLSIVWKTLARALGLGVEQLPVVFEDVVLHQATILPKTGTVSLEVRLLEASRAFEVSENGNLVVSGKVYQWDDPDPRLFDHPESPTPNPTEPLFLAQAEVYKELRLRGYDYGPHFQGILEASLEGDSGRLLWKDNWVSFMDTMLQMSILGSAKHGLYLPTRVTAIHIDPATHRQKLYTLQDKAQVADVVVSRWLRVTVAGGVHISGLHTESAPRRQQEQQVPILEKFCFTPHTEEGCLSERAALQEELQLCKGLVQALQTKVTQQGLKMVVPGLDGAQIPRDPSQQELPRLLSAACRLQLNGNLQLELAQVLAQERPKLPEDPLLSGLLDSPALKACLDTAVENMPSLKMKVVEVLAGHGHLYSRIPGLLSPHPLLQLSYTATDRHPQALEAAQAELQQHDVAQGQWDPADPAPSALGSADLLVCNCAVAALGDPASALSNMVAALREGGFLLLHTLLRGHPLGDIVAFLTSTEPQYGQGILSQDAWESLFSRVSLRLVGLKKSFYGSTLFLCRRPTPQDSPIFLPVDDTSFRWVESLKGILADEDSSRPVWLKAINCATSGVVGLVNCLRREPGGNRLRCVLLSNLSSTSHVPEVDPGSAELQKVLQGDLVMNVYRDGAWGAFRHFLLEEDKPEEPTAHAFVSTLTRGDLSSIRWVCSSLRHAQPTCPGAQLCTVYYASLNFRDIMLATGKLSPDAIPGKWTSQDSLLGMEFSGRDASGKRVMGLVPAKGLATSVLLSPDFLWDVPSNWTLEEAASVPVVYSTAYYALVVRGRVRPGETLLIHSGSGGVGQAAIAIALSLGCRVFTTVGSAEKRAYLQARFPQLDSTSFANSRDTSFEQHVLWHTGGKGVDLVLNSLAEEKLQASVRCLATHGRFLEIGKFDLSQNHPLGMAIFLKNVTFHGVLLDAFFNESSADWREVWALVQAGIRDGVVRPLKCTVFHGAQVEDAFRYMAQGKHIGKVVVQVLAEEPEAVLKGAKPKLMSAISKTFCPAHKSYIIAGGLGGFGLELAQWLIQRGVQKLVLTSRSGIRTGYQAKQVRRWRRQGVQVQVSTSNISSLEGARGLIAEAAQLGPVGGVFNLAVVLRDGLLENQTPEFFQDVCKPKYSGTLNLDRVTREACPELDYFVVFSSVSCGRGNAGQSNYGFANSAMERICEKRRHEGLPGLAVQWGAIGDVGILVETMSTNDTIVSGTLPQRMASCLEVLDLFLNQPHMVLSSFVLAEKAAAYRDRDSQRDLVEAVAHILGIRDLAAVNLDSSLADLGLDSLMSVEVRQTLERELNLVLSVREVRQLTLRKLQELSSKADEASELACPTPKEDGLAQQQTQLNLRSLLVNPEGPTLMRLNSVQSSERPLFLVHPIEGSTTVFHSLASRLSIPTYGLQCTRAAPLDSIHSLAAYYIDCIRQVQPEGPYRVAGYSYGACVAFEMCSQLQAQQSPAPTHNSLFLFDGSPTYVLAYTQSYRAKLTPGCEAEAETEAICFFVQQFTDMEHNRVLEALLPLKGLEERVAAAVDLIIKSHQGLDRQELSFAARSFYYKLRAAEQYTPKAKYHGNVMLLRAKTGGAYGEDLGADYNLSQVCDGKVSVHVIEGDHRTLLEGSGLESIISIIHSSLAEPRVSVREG
- test method notes: inhibition of human FAS-TE enzyme activity – biochemical, endpoint fluorescence intensity, uHTS hits, dose response (AID 624327);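 note: fluorescence from hydrolysis of an O-methyl fluorescein acyl ester substrate by the enzyme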
- Format: functional
The source made the active and inactive calls.
Answer with one of the outcomes given here: active, inactive

Some solved entries appear below for comparison.
COc1cc([N+](=O)[O-])cc(/C=N/NC(=O)c2cccnc2)c1O : active
COc1ccc(C(=O)O)cc1NC(=S)NC(=O)c1ccc(-c2ccc(Cl)cc2)o1 : active
CC(C)(C)c1ccc(OC(=O)Nc2ccc(O)c(C(=O)O)c2)cc1 : active
O=C(Oc1cccc(N2C(=O)C3C4c5ccccc5C(c5ccccc54)C3C2=O)c1)c1ccco1 (stereo not given) : inactive
COc1ccc2[nH]c3c(c2c1)CCN1C(=O)C(CC(=O)NCCC2=CCCCC2)C[C@H](C(=O)N2CCOCC2)[C@@]31CCC1CCCC1 (stereo not given in full) : inactive
C[C@H](NC(=O)C1CCN(S(=O)(=O)c2ccccc2)CC1)C(=O)NCc1ccc(Cl)c(Cl)c1 : active
O=C(COc1ccc2c3c(c(=O)oc2c1)CCC3)N1CCN(c2ccccc2)CC1 : active
CC(C)(C)c1ccc(OCCC(=O)OCC(=O)NC2CCCCC2)cc1 : active
C=CCOc1c(OC)cc(/C=N/Nc2cccc(C(=O)O)c2)c(Br)c1Br : active

--- query ---
Query: State the result this test recorded for Cc1c(Cl)c(=O)oc2cc(OCC(=O)N3CCCC(C)C3)ccc12 (stereo not given) .
Result: active

Taken from ChEMBL document CHEMBL1201862.
